- measured on: HIV-1 reverse transcriptase (RT) (HIV-1, UniProt P04585;P04585 P04585:588-1147,P04585:588-1027)
- test method notes: EMSA; 50 mM KCl, 25 mM NaCl, 5% glycerol, BSA, 25 C
- stated conditions: pseudoknot
value type: Kd (nM)
Give bare numbers, in nM.

### Prompt Write down Kd measured for item aptamer 70.28 (ssRNA) RNA: AGCUCGAGCUCGAAUUCACAAGAACCGGACCGGGUGAGAACCGAGACAAACACCCACCAAGAGGGCCCGGAUCCGUC
### Response 201
